Values compiled from patent US20100267561A1.

Test system: ducksalad (Heteranthera limosa)
Assay: Test B flooded paddy test plant response
Format: in vivo
Conditions: Flood (flooded paddy test), 250 g ai/ha; scale 0 to 100, 0 no effect, 100 complete control
PROPERTY LABEL: Plant response rating, Ducksalad

> print(dat)
                              smiles.record  value
1  Cc1cc(-c2ccc(Cl)cc2)nn1-c1c(OS(=O)(=O)c2ccc(Cl)s2)cnn(C)c1=O     75
2  Cc1cc(-c2ccc(Cl)cc2)nn1-c1c(OC(=O)Oc2ccccc2)cnn(C)c1=O      0
3  Cc1cc(-c2ccc(Cl)cc2)nn1-c1c(OC(=O)c2cccc(Cl)c2)cnn(C)c1=O     40
4  Cc1cc(-c2ccc(Cl)cc2)nn1-c1c(OC(=O)CC(C)C)cnn(C)c1=O     75
5  CCc1cc(-c2ccc(C(F)(F)F)cc2)nn1-c1c(OC(=O)OC(C)C)cnn(C)c1=O     50
